Quick list: 3' UTR reporter interaction score per entry.
system: ZEB2; test: 3' UTR reporter interaction score (median-centred robust z-score of log2 firefly/Renilla activity); higher = less repression of the 3' UTR reporter; details: HEK293T; 48 h

[
  {
    "INPUT SEQUENCE": "CAGUGCAAUAGUAUUGUCAAAGC",
    "3' UTR reporter interaction score": -0.0807
  },
  {
    "INPUT SEQUENCE": "AGGUUGACAUACGUUUCCC",
    "3' UTR reporter interaction score": 1.11
  },
  {
    "INPUT SEQUENCE": "GUUCAAAUCCAGAUCUAUAAC",
    "3' UTR reporter interaction score": 0.383
  },
  {
    "INPUT SEQUENCE": "AUCCUUGCUAUCUGGGUGCUA",
    "3' UTR reporter interaction score": -0.105
  },
  {
    "INPUT SEQUENCE": "CAUGCCUUGAGUGUAGGACCGU",
    "3' UTR reporter interaction score": -1.59
  },
  {
    "INPUT SEQUENCE": "UGUAAACAUCCUACACUCUCAGC",
    "3' UTR reporter interaction score": -2.01
  },
  {
    "INPUT SEQUENCE": "CAUAAAGUAGAAAGCACUAC",
    "3' UTR reporter interaction score": -0.00923
  },
  {
    "INPUT SEQUENCE": "UAGCACCAUUUGAAAUCGGU",
    "3' UTR reporter interaction score": -0.664
  },
  {
    "INPUT SEQUENCE": "AUGACCUAUGAAUUGACAGAC",
    "3' UTR reporter interaction score": -6.08
  },
  {
    "INPUT SEQUENCE": "AAUAUAACACAGAUGGCCUGU",
    "3' UTR reporter interaction score": -0.625
  },
  {
    "INPUT SEQUENCE": "CAAAGAAUUCUCCUUUUGGGCUU",
    "3' UTR reporter interaction score": -0.283
  },
  {
    "INPUT SEQUENCE": "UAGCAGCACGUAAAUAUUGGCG",
    "3' UTR reporter interaction score": 0.217
  },
  {
    "INPUT SEQUENCE": "AAAGUGCUUCCUUUUAGAGGGUU",
    "3' UTR reporter interaction score": 0.894
  },
  {
    "INPUT SEQUENCE": "AUUACAUGGCCAAUCUC",
    "3' UTR reporter interaction score": -0.413
  },
  {
    "INPUT SEQUENCE": "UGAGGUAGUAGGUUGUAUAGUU",
    "3' UTR reporter interaction score": -0.683
  },
  {
    "INPUT SEQUENCE": "CAGUAACAAAGAUUCAUCCUUGU",
    "3' UTR reporter interaction score": 0.308
  },
  {
    "INPUT SEQUENCE": "CAAAGCGCUUCCCUUUGGAGC",
    "3' UTR reporter interaction score": 0.353
  },
  {
    "INPUT SEQUENCE": "AGAUCAGAAGGUGAUUGUGGCU",
    "3' UTR reporter interaction score": -0.441
  },
  {
    "INPUT SEQUENCE": "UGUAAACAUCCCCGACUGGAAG",
    "3' UTR reporter interaction score": -1.09
  },
  {
    "INPUT SEQUENCE": "UAUUGCACUUGUCCCGGCCUG",
    "3' UTR reporter interaction score": -2.03
  },
  {
    "INPUT SEQUENCE": "UGAGGUAGUAGUUUGUGCUGU",
    "3' UTR reporter interaction score": 0.496
  },
  {
    "INPUT SEQUENCE": "AGGCACGGUGUCAGCAGGC",
    "3' UTR reporter interaction score": -0.659
  },
  {
    "INPUT SEQUENCE": "AAAGUGCUGCGACAUUUGAGCGU",
    "3' UTR reporter interaction score": -0.121
  },
  {
    "INPUT SEQUENCE": "AUCCCUUGCAGGGGCUGUUGGGU",
    "3' UTR reporter interaction score": 1.78
  },
  {
    "INPUT SEQUENCE": "UAGUGCAAUAUUGCUUAUAGGGUUU",
    "3' UTR reporter interaction score": -0.0644
  },
  {
    "INPUT SEQUENCE": "AGGAAUGUUCCUUCUUUGCC",
    "3' UTR reporter interaction score": 2.6
  },
  {
    "INPUT SEQUENCE": "GGCAAGAUGCUGGCAUAGCUG",
    "3' UTR reporter interaction score": 1.14
  },
  {
    "INPUT SEQUENCE": "UCAGGCUCAGUCCCCUCCCGAU",
    "3' UTR reporter interaction score": 1.33
  },
  {
    "INPUT SEQUENCE": "AAACUCUACUUGUCCUUCUGAGU",
    "3' UTR reporter interaction score": -1.55
  },
  {
    "INPUT SEQUENCE": "UAAGGUGCAUCUAGUGCAGAUA",
    "3' UTR reporter interaction score": -0.0823
  },
  {
    "INPUT SEQUENCE": "UACGUCAUCGUUGUCAUCGUCA",
    "3' UTR reporter interaction score": -2.2
  },
  {
    "INPUT SEQUENCE": "UACUGCAUCAGGAACUGAUUGGAU",
    "3' UTR reporter interaction score": -0.414
  },
  {
    "INPUT SEQUENCE": "UCAGUGCACUACAGAACUUUGU",
    "3' UTR reporter interaction score": 1.75
  },
  {
    "INPUT SEQUENCE": "GGUCCAGAGGGGAGAUAGG",
    "3' UTR reporter interaction score": -0.0605
  },
  {
    "INPUT SEQUENCE": "UGGUAGACUAUGGAACGUA",
    "3' UTR reporter interaction score": 0.356
  },
  {
    "INPUT SEQUENCE": "UGAGCUGCUGUACCAAAAU",
    "3' UTR reporter interaction score": 0.288
  },
  {
    "INPUT SEQUENCE": "UAAGUGCUUCCAUGUUUUGGUGA",
    "3' UTR reporter interaction score": 1.55
  },
  {
    "INPUT SEQUENCE": "AUGUAUGUGUGCAUGUGCAUG",
    "3' UTR reporter interaction score": -0.0851
  },
  {
    "INPUT SEQUENCE": "CAAAGUGCCUCCCUUUAGAGUGU",
    "3' UTR reporter interaction score": -0.0865
  },
  {
    "INPUT SEQUENCE": "GACACGGGCGACAGCUGCGGCCC",
    "3' UTR reporter interaction score": 0.917
  },
  {
    "INPUT SEQUENCE": "UCGUACCGUGAGUAAUAAUGC",
    "3' UTR reporter interaction score": 0.34
  },
  {
    "INPUT SEQUENCE": "GUUGGAGGAUGAAAGUACGGAGUGAU",
    "3' UTR reporter interaction score": 0.0694
  },
  {
    "INPUT SEQUENCE": "UAAGUGCUUCCAUGUUUGAGUGU",
    "3' UTR reporter interaction score": 1.47
  },
  {
    "INPUT SEQUENCE": "CUGUGCGUGUGACAGCGGCUGA",
    "3' UTR reporter interaction score": 2.18
  },
  {
    "INPUT SEQUENCE": "UCCGAGCCUGGGUCUCCCUCU",
    "3' UTR reporter interaction score": -0.318
  },
  {
    "INPUT SEQUENCE": "AAAGUGCAUCUUUUUAGAGGAU",
    "3' UTR reporter interaction score": -0.325
  },
  {
    "INPUT SEQUENCE": "AAAGACAUAGGAUAGAGUCACCUC",
    "3' UTR reporter interaction score": 0.2
  },
  {
    "INPUT SEQUENCE": "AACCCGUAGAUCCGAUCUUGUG",
    "3' UTR reporter interaction score": -0.0662
  },
  {
    "INPUT SEQUENCE": "UCUUGUGUUCUCUAGAUCAGU",
    "3' UTR reporter interaction score": 0.366
  },
  {
    "INPUT SEQUENCE": "AACUGGCCCUCAAAGUCCCGCUUU",
    "3' UTR reporter interaction score": 0.222
  },
  {
    "INPUT SEQUENCE": "CAAAGUGCUUACAGUGCAGGUAGU",
    "3' UTR reporter interaction score": 1.15
  },
  {
    "INPUT SEQUENCE": "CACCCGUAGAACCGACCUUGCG",
    "3' UTR reporter interaction score": -1.09
  }
]
